Provide the reported growth of each item.
- System: TK-10 renal
- procedure_text: NCI-60 one-dose screen, 48 h (100 = growth as untreated, 0 = no growth, -100 = all killed)
- cond: 10 µM unless noted
This is part of a sample that, as a whole, favours compounds with a hit. Of some 83,000 tested, about 20% had one in any assay.
Respond numerically; units are % and should not be typed.

Item: `CC(C)(CO)N(CCO)CCO` | System: TK-10 renal | growth: 95.5

Item: `O=C(Nc1nc(C(=O)N2CCN(C(c3ccccc3)c3ccccc3)CC2)cs1)c1ccc(NC2CCCCC2)c([N+](=O)[O-])c1` | System: TK-10 renal | growth: 100

Item: `CCCCCCCC/C=C\CCCCCCCCOc1ccc(CC(=O)NCC[N+](C)(C)C)cc1` | System: TK-10 renal | growth: 24.6

Item: COc1ccc(C2=CN3CC=CCC3CC2=O)cc1 (stereo unspecified) | System: TK-10 renal | growth: 103

Item: `CCN(CC)c1ccc(N2C(=O)/C(=C/c3cccs3)SC2=S)cc1` | System: TK-10 renal | growth: 92.9

Item: `C#Cc1cccc(Nc2nc3ccc([N+](=O)[O-])cc3nc2Nc2cccc(C#C)c2)c1` | System: TK-10 renal | growth: -34.4

Item: `Cc1cscc(C)c1=S` | System: TK-10 renal | growth: 92.4

Item: `Cc1ccc(C(=O)c2ccc(CC(=O)N/N=C/c3ccc(O)cc3O)n2C)cc1` | System: TK-10 renal | growth: 52.9

Item: `CCN(CC)CCOc1ccc(Nc2ncc3cc(-c4ccc(O)cc4)c(=O)n(C)c3n2)cc1` | System: TK-10 renal | growth: 81.2

Item: `COc1cc2c3c(c1O)-c1ccccc1[C@@H]1OC(=O)N(CC2)[C@H]31` | System: TK-10 renal | growth: 104

Item: `COc1cc(-c2nc3ccc(C)cc3[nH]2)ccc1OCC(=O)N=Nc1c(O)[nH]c2ccc(Cl)cc12` | System: TK-10 renal | growth: 23.4

Item: `COC(=O)c1nc(-c2ccccc2)oc1S(=O)(=O)N1CCC(C(N)=O)CC1` | System: TK-10 renal | growth: 23.2

Item: `O=C(Nc1cccc(NC(=O)C2CCCCC2)c1)c1ccccn1` | System: TK-10 renal | growth: 112

Item: `Cn1c(=O)c2c(c3ccccc31)OC(N)=C(C#N)C21C(=O)c2ccccc2C1=O` | System: TK-10 renal | growth: 127

Item: CSCCC(NC(=O)c1ccccc1)C(=O)N/N=C1\S/C(=C/c2ccc(Cl)cc2)C(=O)N1C (stereo unspecified) | System: TK-10 renal | growth: 105

Item: `CCOC(=O)c1n[nH]n2c1nc(=O)c1cnn(C)c12` | System: TK-10 renal | growth: 97.6

Item: `O=c1[nH]c(-c2ccc(Cl)cc2)cn1-c1ccc(-n2cc(-c3ccc(Cl)cc3)[nH]c2=O)cc1` | System: TK-10 renal | growth: 103

Item: `CCOc1ccc(NC(=O)c2cc(OC)c(OC)c(OC)c2)cc1` | System: TK-10 renal | growth: 60.3

Item: O=C(NCc1ccc2c(c1)OCO2)NCC1CCCC(CNC(=O)NCc2ccc3c(c2)OCO3)C1 (stereo unspecified) | System: TK-10 renal | growth: 101

Item: `COc1ccc(-c2oc(=O)ccc2-c2cc(OC)c(OC)c(OC)c2)cc1O` | System: TK-10 renal | growth: 61.6

Item: `O=C(CN1CCN(c2cc3c(cc2F)c(=O)c(C(=O)O)cn3C2CC2)CC1)N/N=C/c1ccncc1` | System: TK-10 renal | growth: 91.6

###

Provide the reported growth of each item.
- Tested on: SNB-75 CNS
- procedure_text: NCI-60 one-dose screen, 48 h (100 = growth as untreated, 0 = no growth, -100 = all killed)
- cond: 10 µM unless noted
The panel holds about 83,000 compounds, 20% with a hit somewhere; the sample as a whole holds those more often.
Respond numerically; units are % and should not be typed.

Item: `CC1(C)CCC(S(=O)(=O)c2ccc3c(c2)/C(=N\O)c2cc(S(=O)(=O)N4CCN(c5ccc(F)cc5O)CC4)ccc2-3)CC1` | System: SNB-75 CNS | growth: -97.6

Item: `COc1ccc2[nH]cc(-c3nc(-c4cn(C)c5ccncc45)cs3)c2c1` | System: SNB-75 CNS | growth: 110

Item: `COc1cc(-c2cc(-c3ccc(Nc4ncnc5cc(Cl)ccc45)cc3)nc(N3CCN(C)CC3)n2)cc(OC)c1OC` | System: SNB-75 CNS | growth: 49.5

Item: `O=C1c2cc3c(cc2-c2c1c1ccc(Cl)cc1c(=O)n2C[C@H](O)CO)OCO3` | System: SNB-75 CNS | growth: -9.59

Item: `N#Cc1c(-c2ccccc2)cc(-c2ccccc2)n(CCCC(=O)NO)c1=O` | System: SNB-75 CNS | growth: -23.6

Item: `COc1cc(Nc2c3ccc(Cl)cc3nc3ccc(OC)cc23)c2ncccc2c1` | System: SNB-75 CNS | growth: 70.1

Item: `Nc1c(C(=O)Nc2ccncc2)sc2nc3c(cc12)CCCCC3` | System: SNB-75 CNS | growth: 93.5

Item: `CCCCCn1sc(=O)n(Cc2ccc(CNC(=O)OCc3ccc4c(Cl)cc(Cl)c(O)c4n3)cc2)c1=O` | System: SNB-75 CNS | growth: 82.1

Item: `COc1ccc(OC)c(Nc2nnc(-c3ccc(Cl)cc3)o2)c1` | System: SNB-75 CNS | growth: 59.4

Item: O=P(O)(O)OCC1OC(n2cnc3c(NCc4ccccc4)ncnc32)C(O)C1O (stereo unspecified) | System: SNB-75 CNS | growth: 49.9

Item: `CCN(CC)CCOc1ccc(Nc2ncc3cc(-c4ccc(O)cc4)c(=O)n(C)c3n2)cc1` | System: SNB-75 CNS | growth: 27.7

Item: O=c1[nH]cnc2c1C(c1ccc(Br)cc1)c1sc3c(F)cccc3c1O2 (stereo unspecified) | System: SNB-75 CNS | growth: 85.1

Item: `Cc1ccc(/C=C2\CN(C(=O)C(Cl)Cl)C/C(=C\c3ccc(C)cc3)C2=O)cc1` | System: SNB-75 CNS | growth: -30.2

Item: `O=C(c1ccc(Cl)cc1Cl)N1c2ccccc2Sc2ccccc21` | System: SNB-75 CNS | growth: 59.6

Item: `O=C1NC(=O)c2c1c1c3ccccc3[nH]c1c1oc3ccc(F)cc3c21` | System: SNB-75 CNS | growth: 41.3

Item: `C=C1C(=O)O[C@H]2[C@H]1CC/C(COC(=O)/C=C\C(=O)NCc1ccc(Cn3c(=O)sn(-c4ccccc4)c3=O)cc1)=C\CC[C@@]1(C)O[C@@H]21` | System: SNB-75 CNS | growth: 98

Item: CN1C(=O)N(C)C2C1NC(=S)N2/N=C/C=C/c1ccccc1[N+](=O)[O-] (stereo unspecified) | System: SNB-75 CNS | growth: -5.19

Item: `COc1ccc2cc(-c3cnc4nonc4n3)ccc2c1` | System: SNB-75 CNS | growth: 15.8

Item: Cc1nc2sc(C(=O)Nc3cccc(Cl)c3)c(N)c2cc1C(O)c1ccccc1 (stereo unspecified) | System: SNB-75 CNS | growth: 46.9

Item: `C=NNc1ccccc1` | System: SNB-75 CNS | growth: 90.9

Item: `N#Cc1nc2c(S(=O)(=O)c3ccccc3)c(N)n(Cc3cccnc3)c2nc1C#N` | System: SNB-75 CNS | growth: 57.4

Item: `CCN(CC)CCN(CCN(CC)CC)c1ccccc1` | System: SNB-75 CNS | growth: 79.1

Item: `CN1CCN(CCCOC(=O)c2c3c(n4ccccc24)C(=O)c2ncccc2C3=O)CC1` | System: SNB-75 CNS | growth: -88.7

Item: `COc1cc2c(/C=C3\C(=O)Nc4ccccc43)c(C(=O)O)[nH]c2cc1C` | System: SNB-75 CNS | growth: 66.3

Item: `COc1cc(C(=O)/C=C/c2ccc(N3CCN(C)CC3)cc2)cc(OC)c1OC` | System: SNB-75 CNS | growth: 82.2

Item: `Cc1ccc(N=Nc2c(N)nn(-c3ccccc3)c2N)cc1` | System: SNB-75 CNS | growth: 32.6

Item: `N=C(N)SCc1cccc2c(CSC(=N)N)cccc12` | System: SNB-75 CNS | growth: 91.7

Item: `C/C(=N\Nc1nc(C)cs1)c1cc2ccccc2o1` | System: SNB-75 CNS | growth: 119

Item: `O=C(CSc1nnc2sc(Nc3cccc(Cl)c3)nn12)c1ccc(F)cc1` | System: SNB-75 CNS | growth: 104

Item: `CCCCc1oc2ccccc2c1C(=O)c1ccc(O)cc1` | System: SNB-75 CNS | growth: 62.4

Item: `COc1ccc(-c2ccc(=O)oc2C#Cc2cc(OC)c(OC)c(OC)c2)cc1O` | System: SNB-75 CNS | growth: -13.4

Item: `CN1CCN(CCCOc2ccc3ncnc(Nc4ccc(Oc5cccc(F)c5)c(Cl)c4)c3c2)CC1` | System: SNB-75 CNS | growth: 52.1

Item: `Cc1ccc(C)c(-n2c(-c3ccc(Br)cc3)csc2=NC(=O)c2ccccc2F)c1` | System: SNB-75 CNS | growth: 84.6

Item: `O=C(Cn1nnc2ccccc21)Nc1ccc(-c2nc3ccccc3s2)cc1` | System: SNB-75 CNS | growth: 106

Item: CC1=NN(c2ccc(Cl)cc2)CC1(C)N=O (stereo unspecified) | System: SNB-75 CNS | growth: 75.7

Item: `O=C(Nc1cccnc1Nc1ccc(Cl)cc1)c1cn(Cc2ccc(F)cc2)nn1` | System: SNB-75 CNS | growth: 94.6

Item: O=C(/C=C/C12c3ccccc3C(c3ccccc31)C1C(=O)NC(=O)C12)c1ccc(F)cc1 (stereo unspecified) | System: SNB-75 CNS | growth: 7.89

Item: `CN1CCN(c2ccc3c(c2)nc(NNC(=O)c2cnccn2)c2cccn23)CC1` | System: SNB-75 CNS | growth: 66.7

Item: `Cc1cc(N2CCCCC2)nc(N2CCN(CC(=O)Nc3ccc4c(ccn4Cc4ccccc4)c3)CC2)n1` | System: SNB-75 CNS | growth: 66.4

Item: `CCNC(=O)Oc1ccc(/C(=C(/C)Cc2ccc(OC)cc2)c2ccc(OCCN3CCCCCC3)cc2)cc1` | System: SNB-75 CNS | growth: 77.4

Item: `CN(C)c1ccc(/C=C2/C=C(c3ccccc3)OC2=O)cc1` | System: SNB-75 CNS | growth: 102

Value source: PubChem BioAssay (NCI)
